Taken from patent US7807701B2.

TARGET_SYSTEM: CETP (Homo sapiens, UniProt P11597)
Construct: The donor lipoprotein obtained above was added to plasma of healthy subject
Sequence (P11597 18-493): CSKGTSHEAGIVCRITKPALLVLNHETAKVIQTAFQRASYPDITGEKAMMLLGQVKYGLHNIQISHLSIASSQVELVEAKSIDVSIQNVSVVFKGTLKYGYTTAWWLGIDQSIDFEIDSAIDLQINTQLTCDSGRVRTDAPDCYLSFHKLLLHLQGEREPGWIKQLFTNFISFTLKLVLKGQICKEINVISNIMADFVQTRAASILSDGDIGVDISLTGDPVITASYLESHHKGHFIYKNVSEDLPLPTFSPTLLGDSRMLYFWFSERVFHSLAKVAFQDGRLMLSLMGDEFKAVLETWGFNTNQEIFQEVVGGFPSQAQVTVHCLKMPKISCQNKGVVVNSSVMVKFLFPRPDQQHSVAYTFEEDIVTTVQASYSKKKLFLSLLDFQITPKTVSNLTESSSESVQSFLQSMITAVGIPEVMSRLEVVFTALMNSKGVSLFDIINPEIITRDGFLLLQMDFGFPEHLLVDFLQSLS
PROTOCOL_DESCRIPTION: Inhibitory effect in vitro on CETP activity in total plasma
CONDITIONS_USED: plasma of healthy subject with [3H]CE-HDL3, 37° C., 4 hr; average values
Counter-ions that a name gives are not always drawn.
MEASUREMENT_TYPE: pIC50
For clarity, pIC50 is expressed as the negative log10 of concentration in mol/L.

# count of solved cases: 3
compound="CCN(CCCCC(=O)O)c1cc2c(cc1CN(Cc1cc(C#N)cc(C(F)(F)F)c1)c1cc(C)no1)CCCC2 [Example 79, hydrochloride]" measured=6.05
compound="CCN(C[C@H]1CC[C@H](C(=O)O)CC1)c1cc2c(cc1CN(Cc1cc(C(F)(F)F)cc(C(F)(F)F)c1)c1ccn(C)n1)CCCC2 [Example 44, hydrochloride]" measured=6.44
compound="CCN(CCCCC(=O)O)c1cc2c(cc1CN(Cc1cc(C(F)(F)F)cc(C(F)(F)F)c1)c1cc(C)no1)CCCC2 [Example 78, hydrochloride]" measured=6.49

Could you now look at the following compound, please?
Find the recorded pIC50 belonging to CCN(CC1CCCC1)c1cc2c(cc1CN(Cc1cc(C#N)cc(C(F)(F)F)c1)c1ccccc1)CCC2 and report it. 6.24

====

TARGET_SYSTEM: CETP (Homo sapiens, UniProt P11597)
Construct: The donor lipoprotein obtained above was added to plasma of healthy subject
PROTOCOL_DESCRIPTION: Inhibitory effect in vitro on CETP activity in total plasma
CONDITIONS_USED: plasma of healthy subject with [3H]CE-HDL3, 37° C., 4 hr; average values
Where a name gives a salt, the structure may show the parent alone.
MEASUREMENT_TYPE: pIC50
For clarity, pIC50 is expressed as the negative log10 of concentration in mol/L.

compound="CCN(CC1CCCC1)c1cc2c(cc1CN(Cc1cc(C(F)(F)F)cc(C(F)(F)F)c1)c1cc(C)[nH]n1)CCC2 [Example 7]" measurement_type=pIC50 measured=6.57
compound="CCN(CC1CCCC1)c1cc2c(cc1CN(Cc1cc(C(F)(F)F)cc(C(F)(F)F)c1)c1ccn(C)n1)CCC2 [Example 27, hydrochloride]" measurement_type=pIC50 measured=6.24

Could you now look at the following compound, please?
Find the recorded pIC50 belonging to CCN(C[C@H]1CC[C@H](C(=O)O)CC1)c1cc2c(cc1CN(Cc1cc(C#N)cc(C(F)(F)F)c1)c1ccn(C)n1)CCCC2 [Example 45, hydrochloride] and report it. 6.31

====

TARGET_SYSTEM: CETP (Homo sapiens, UniProt P11597)
Construct: The donor lipoprotein obtained above was added to plasma of healthy subject
PROTOCOL_DESCRIPTION: Inhibitory effect in vitro on CETP activity in total plasma
CONDITIONS_USED: plasma of healthy subject with [3H]CE-HDL3, 37° C., 4 hr; average values
Structures can show the parent of a compound that is named as a salt.
MEASUREMENT_TYPE: IC50
Phrase the answer as number then unit, nothing more needed.

Find the recorded IC50 belonging to CCN(CC1CCCC1)c1cc2c(cc1CN(Cc1cc(C#N)cc(C(F)(F)F)c1)c1nnn(C)n1)CCC2 and report it. 0.23 µM

Find the recorded IC50 belonging to CCN(C[C@H]1CC[C@H](C(=O)O)CC1)c1cc2c(cc1CN(Cc1cc(C#N)cc(C(F)(F)F)c1)c1cc(C)no1)CCCC2 [Example 72, hydrochloride] and report it. 0.39 µM

Find the recorded IC50 belonging to CCN(CCCCC(=O)O)c1ccc(C(F)(F)F)cc1CN(Cc1cc(C(F)(F)F)cc(C(F)(F)F)c1)c1nnn(C)n1 [Example 86, hydrochloride] and report it. 0.941 µM
